- test.target: UniProtKB P11309
- Sequence (P11309 whole entry): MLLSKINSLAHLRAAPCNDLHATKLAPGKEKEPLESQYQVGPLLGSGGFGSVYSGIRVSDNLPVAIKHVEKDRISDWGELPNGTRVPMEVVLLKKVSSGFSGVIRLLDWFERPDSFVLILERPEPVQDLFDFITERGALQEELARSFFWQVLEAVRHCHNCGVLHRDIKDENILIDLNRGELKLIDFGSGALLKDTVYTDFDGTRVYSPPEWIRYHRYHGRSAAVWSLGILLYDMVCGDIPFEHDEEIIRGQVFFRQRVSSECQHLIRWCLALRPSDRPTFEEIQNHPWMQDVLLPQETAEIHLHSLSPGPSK
- assay.comment: ADP-Glo Kinase Assay, Pim-1
- Format: biochemical
- recorded.conditions: 1 μM compound; read-out: Pim-1 % INH (1 μM)
Where a name gives a salt, the structure may show the parent alone.

| compound | test.target | inequality.sign | inhibition at 1 µM, % |
| --- | --- | --- | --- |
| CCn1c(N2CCNCC2)nc2c([N+](=O)[O-])c(Br)c(Br)cc21 [Example 1A, hydrochloride] | UniProtKB P11309 | = | 81 |
| CCn1c(NCCCN)nc2c([N+](=O)[O-])c(Br)c(Br)cc21 [Example 1C] | UniProtKB P11309 | = | 85 |
| CC(C)=CCn1c(N2CCNCC2)nc2c([N+](=O)[O-])c(Br)c(Br)cc21 [Example 2E, hydrochloride] | UniProtKB P11309 | = | 79 |
| O=[N+]([O-])c1c(Br)c(Br)cc2c1nc(N1CCNCC1)n2C1CC1 [Example 21A, trifluoroacetate] | UniProtKB P11309 | = | 87 |
| NCCn1c(N2CC[C@H](N)C2)nc2c([N+](=O)[O-])c(Br)c(Br)cc21 [Example 3B] | UniProtKB P11309 | > | 95 |
| CC(C)n1c(N2CCCC(N)C2)nc2c([N+](=O)[O-])c(Br)c(Br)cc21 (centres unmarked) [Example 1T] | UniProtKB P11309 | > | 95 |
| CCn1c(N2CCNC(=O)C2)nc2c([N+](=O)[O-])c(Br)c(Br)cc21 [Example 22A] | UniProtKB P11309 | = | 65 |
| NCCCn1c(N2CC[C@@H](N)C2)nc2c([N+](=O)[O-])c(Br)c(Br)cc21 [Example 3A] | UniProtKB P11309 | > | 95 |
| CCn1c(NC2CCNC2)nc2c([N+](=O)[O-])c(Br)c(Br)cc21 (centres unmarked) [Example 1AF] | UniProtKB P11309 | > | 95 |
| CC(C)n1c(N2CCCC(O)C2)nc2c([N+](=O)[O-])c(Br)c(Br)cc21 (centres unmarked) [Example 22G] | UniProtKB P11309 | > | 95 |
| CCn1c(NC2CCCNCC2)nc2c([N+](=O)[O-])c(Br)c(Br)cc21 (centres unmarked) [Example 1Q] | UniProtKB P11309 | = | 86 |
| CC(C)n1c(N2CCN[C@H](C)C2)nc2c([N+](=O)[O-])c(Br)c(Br)cc21 [Example 22AA] | UniProtKB P11309 | > | 95 |
| CC(C)n1c(N2CCNCC2)nc2c([N+](=O)[O-])c(Br)c(Br)cc21 [Example 2A, hydrochloride] | UniProtKB P11309 | > | 95 |
| COC(CN)CNc1nc2c(C#N)c(Br)c(Br)cc2n1C(C)C (centres unmarked) [Example 22AC] | UniProtKB P11309 | > | 95 |
| CCn1c(N2CCNC(C)C2)nc2c([N+](=O)[O-])c(Br)c(Br)cc21 (centres unmarked) [Example 22X] | UniProtKB P11309 | = | 74 |
| CCn1c(N2CCNCC2C)nc2c([N+](=O)[O-])c(Br)c(Br)cc21 (centres unmarked) [Example 1AD] | UniProtKB P11309 | > | 95 |
| C#CCn1c(N2CCNCC2)nc2c([N+](=O)[O-])c(Br)c(Br)cc21 [Example 2B, hydrochloride] | UniProtKB P11309 | = | 53 |
